// reported solubility per item
test_name: Kinetic solubility
measurement_conditions: kinetic from dmso stock
measurement_kind: solubility (µM)

{"columns": ["chemical_smiles", "measurement_kind", "censoring_sign", "recorded_value"],
 "data": [
  ["N#C[C@@H]1CSCN1C(=O)CNC(=O)c1ccnc2ccc(N3CC4(CC4)C3)cc12", "solubility", "=", 64],
  ["N#C[C@@H]1CSCN1C(=O)CNC(=O)c1ccnc2ccc(N3CC4(CCCC4(F)F)C3)cc12", "solubility", "=", 140],
  ["N#C[C@@H]1CSCN1C(=O)CNC(=O)c1ccnc2ccc(N3CCC4(CC3)COC4)cc12", "solubility", ">", 1000],
  ["N#C[C@@H]1CSCN1C(=O)CNC(=O)c1ccnc2ccc(N3CC4(CCC4)C3)cc12", "solubility", "=", 250],
  ["CC1CC2(C1)CN(c1ccc3nccc(C(=O)NCC(=O)N4CSC[C@H]4C#N)c3c1)C2", "solubility", "=", 130],
  ["N#C[C@@H]1CSCN1C(=O)CNC(=O)c1ccnc2ccc(N3CCC4(CC3)OCCCO4)cc12", "solubility", "=", 852],
  ["N#C[C@@H]1CSCN1C(=O)CNC(=O)c1ccnc2ccc(N3CC4(CC(C(F)(F)F)C4)C3)cc12", "solubility", "=", 77],
  ["N#C[C@@H]1CSCN1C(=O)CNC(=O)c1ccnc2ccc(N3CC4(CCS4)C3)cc12", "solubility", "=", 120],
  ["CC1(C)COC12CN(c1ccc3nccc(C(=O)NCC(=O)N4CSC[C@H]4C#N)c3c1)C2", "solubility", "=", 93],
  ["N#C[C@@H]1CSCN1C(=O)CNC(=O)c1ccnc2ccc(N3CC4(COC4)C3)cc12", "solubility", ">", 910],
  ["N#C[C@@H]1CSCN1C(=O)CNC(=O)c1ccnc2ccc(N3CC4(CC(F)C4)C3)cc12", "solubility", "=", 400],
  ["N#C[C@@H]1CSCN1C(=O)CNC(=O)c1ccnc2ccc(N3CCC4(CCCCC4)OC3=O)cc12", "solubility", "=", 950],
  ["N#C[C@@H]1CSCN1C(=O)CNC(=O)c1ccnc2ccc(N3CCC34CCC4)cc12", "solubility", "=", 480],
  ["N#C[C@@H]1CSCN1C(=O)CNC(=O)c1ccnc2ccc(N3CCOC4(CCOCC4)C3)cc12", "solubility", "=", 800],
  ["N#C[C@@H]1CSCN1C(=O)CNC(=O)c1ccnc2ccc(N3CC4(CCCC4)C3)cc12", "solubility", "=", 50],
  ["N#C[C@@H]1CSCN1C(=O)CNC(=O)c1ccnc2ccc(N3CCC4(CC4)C3)cc12", "solubility", "=", 13]
]}

---

# key: entry, value: hFAP Binding assay k(on)
tested_on: UniProtKB Q12884
Sequence (Q12884 39-757): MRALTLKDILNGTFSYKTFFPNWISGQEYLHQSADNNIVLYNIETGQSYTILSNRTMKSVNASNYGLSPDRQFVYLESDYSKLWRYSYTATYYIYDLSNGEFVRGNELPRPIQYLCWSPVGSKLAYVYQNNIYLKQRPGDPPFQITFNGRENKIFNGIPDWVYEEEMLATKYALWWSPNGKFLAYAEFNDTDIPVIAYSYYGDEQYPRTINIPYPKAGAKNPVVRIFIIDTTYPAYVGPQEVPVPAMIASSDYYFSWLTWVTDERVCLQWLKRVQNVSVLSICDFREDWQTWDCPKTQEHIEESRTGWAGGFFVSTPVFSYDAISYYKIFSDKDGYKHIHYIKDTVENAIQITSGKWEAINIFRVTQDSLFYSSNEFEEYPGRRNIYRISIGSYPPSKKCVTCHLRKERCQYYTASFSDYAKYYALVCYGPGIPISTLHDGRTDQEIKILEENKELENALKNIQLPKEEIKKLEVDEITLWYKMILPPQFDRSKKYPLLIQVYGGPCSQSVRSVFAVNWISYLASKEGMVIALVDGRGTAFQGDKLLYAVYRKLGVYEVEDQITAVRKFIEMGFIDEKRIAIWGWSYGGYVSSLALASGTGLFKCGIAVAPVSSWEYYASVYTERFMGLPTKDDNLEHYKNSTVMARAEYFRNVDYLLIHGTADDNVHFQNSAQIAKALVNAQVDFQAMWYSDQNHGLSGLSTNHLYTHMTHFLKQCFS
test_name: hFAP binding assay (surface plasmon resonance)
measurement_conditions: SPR, 20° C., single cycle kinetics

{"columns": ["compound", "unit_spec", "hFAP Binding assay k(on)"],
 "data": [
  ["N#C[C@@H]1CSCN1C(=O)CNC(=O)c1ccnc2ccc(N3CCCC[C@H](F)C3)cc12 [Example 60]", "M⁻¹ s⁻¹", 1700000],
  ["CC1(C)CCCN(c2ccc3nccc(C(=O)NCC(=O)N4CSC[C@H]4C#N)c3c2)C1=O [Example 15]", "M⁻¹ s⁻¹", 490000],
  ["COC1CN(c2ccc3nccc(C(=O)NCC(=O)N4CSC[C@H]4C#N)c3c2)C1 [Example 66]", "M⁻¹ s⁻¹", 26000000],
  ["N#C[C@@H]1CSCN1C(=O)CNC(=O)c1ccnc2ccc(N3CCOC4(CCOCC4)C3)cc12 [Example 99]", "M⁻¹ s⁻¹", 2100000],
  ["N#C[C@@H]1CSCN1C(=O)CNC(=O)c1ccnc2ccc(N3CC(F)(C4CC4)C3)cc12 [Example 31]", "M⁻¹ s⁻¹", 9700000],
  ["N#C[C@@H]1CSCN1C(=O)CNC(=O)c1ccnc2ccc(N3CC(OC(F)(F)F)C3)cc12 [Example 132]", "M⁻¹ s⁻¹", 270000],
  ["COC[C@@H]1CN(c2ccc3nccc(C(=O)NCC(=O)N4CSC[C@H]4C#N)c3c2)CCO1 [Example 93]", "M⁻¹ s⁻¹", 1800000],
  ["CC(F)(F)C1CN(c2ccc3nccc(C(=O)NCC(=O)N4CSC[C@H]4C#N)c3c2)C1 [Example 147]", "M⁻¹ s⁻¹", 2800000]
]}

Just for reference, patent US20230312550A1 is where these values come from.
